Tested on: EPHB6;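 further: KINOMEscan kinase panel screen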
Conditions: concentration: 1 μM, replicates: in singlicate; n = 1
Parameter measured: %Inh (%)
Express your answer in %, writing the number without its unit.

Look over these answered cases.
> print(dat)
                                   compound  parameter.measured  measured.number
1  Cc1cccc(-c2nc(Nc3ccc4[nH]ncc4c3)c3ccccc3n2)n1 [GW857175]                %Inh               43
2  CC(=O)Nc1nc2cnc(Nc3cc(NC(=O)c4cccc(CCC#N)c4)ccc3C)nc2s1                %Inh               45
3  Cc1cc(-c2ccc3c(c2)CC[C@@H](N[C@@H](C)c2ccccc2)C3)cnc1N.Cl [GW412617]                %Inh               48
4  Cc1ccc(-c2cc(-c3c[nH]nc3-c3ccccn3)ccn2)cc1 [GW684088]                %Inh                7
5    Fc1cccc(COc2nnc(-c3ccc4c(c3)CCO4)o2)c1                %Inh                0
6  COc1ccc2nc(-c3cccc(C)n3)nc(Nc3ccncc3)c2c1 [GSK204919]                %Inh                0
7   CCn1c(-c2cccnc2O)nc2cnccc21 [SB-736715]                %Inh                0
8  Cl.c1ccc(-c2n[nH]cc2-c2ccnc(-c3ccc(CN4CCOCC4)cc3)c2)nc1 [GW776245]                %Inh                0

The reported value for COc1cc(Nc2nccc(N3CCC(NC(=O)Nc4cc(C)ccc4C)C3)n2)cc(OC)c1OC (stereo not shown) [GSK1379762] in terms of %Inh is 89

%Inh in this record for COc1ccc(Nc2nccc(NCCNC(=O)Nc3ccccc3F)n2)cc1 [GSK1379901] : 4

# compound `Cn1ccc2ncnc(Oc3cccc(C(=O)Nc4ccccc4)c3)c21` ; its %Inh = 0

Lab book: %Inh of COc1cc2ncnc(Nc3ccc4nc(-c5ccccc5)[nH]c4c3)c2cc1OC.Cl [GW282450] noted as 18

Lab note: Fc1cc(Cl)ccc1Nc1ccnc2cc(I)ccc12 [GW551191] gave %Inh of 53

The reported numbers originate from paper PMC5540273.
